# Test system: goldfish retinal ganglion cells
# assay comment: Axonal outgrowth from dissociated goldfish retinal ganglion cell cultures
# Type: cell-based
# condition label: goldfish RGCs, 6 days; estimated from dose-response curves
assay readout: pEC50
In plain terms, pEC50 is the concentration in mol/L turned into minus its base-10 logarithm.

Exercise: What value of pEC50 has been recorded for this entry: Nc1nc2c(ncn2[C@@H]2O[C@H](CO)[C@@H](O)[C@H]2O)c(=O)[nH]1 [guanosine]
Solution: 4.60
